Every entry's value here was drawn from paper PMC8954792.

tested on: pseudotyped SARS-CoV-2 Beta (B.1.351); assay: microbe, parasite or virus in culture; format: cell-based; details: Severe acute respiratory syndrome coronavirus 2, Caco-2
Rule for this label: TRUE means IC50 is less than 400 nM; FALSE means IC50 is at least 400 nM.

# smiles.record, class.label
rows = [
    ("CCOc1ccc(CCN2C(=O)/C(=C/c3ccc(-c4ccc(Cl)c(C(=O)O)c4)o3)SC2=S)cc1", "TRUE"),
    ("C#CCOCCOc1ccc(CCN2C(=O)/C(=C/c3ccc(-c4ccc(Cl)c(C(=O)O)c4)o3)SC2=S)cc1", "FALSE"),
    ("O=C(O)c1cc(-c2ccc(/C=C3\\SC(=S)N(CCc4ccc(OCC5CC5)cc4)C3=O)o2)ccc1Cl", "TRUE"),
]

Hi there! Is IC50 for "O=C(O)c1cc(-c2ccc(/C=C3\SC(=S)N(CCc4ccc(OCc5ccsc5)cc4)C3=O)o2)ccc1Cl" below 400 nM, do you know?
TRUE

Next compound up: "O=C(O)c1cc(-c2ccc(/C=C3\SC(=S)N(CCc4ccc(OCc5ccc(F)cc5)cc4)C3=O)o2)ccc1Cl"
FALSE

Next compound up: "C#CCOc1ccc(CCN2C(=O)/C(=C/c3ccc(-c4ccc(Cl)c(C(=O)O)c4)o3)SC2=S)cc1"
FALSE

###

tested on: MERS-CoV PsV
readout.label: pIC50
Here pIC50 is given on a logarithmic scale as minus log10 of the concentration in mol/L.

For the compound O=C(O)c1cc(-c2ccc(C=C3SC(=S)N(CCc4ccccc4)C3=O)o2)ccc1Cl [FD001, furanyl methylidene rhodanine] , what pIC50 is on record?
6.54

###

test system: Huh-7 cells; assay: Cytotoxicity (CCK-8) on Huh-7 cells
readout.label: CC50
A bare number is not enough; add the unit after it.

For the compound "O=C(O)c1cc(-c2ccc(C=C3SC(=S)N(CCc4ccccc4)C3=O)o2)ccc1Cl" , what CC50 is on record?
42.6 µM

###

test system: SARS-CoV PsV; assay: microbe, parasite or virus in culture; conditions: Severe acute respiratory syndrome coronavirus
readout.label: IC50 (nM)
Numbers only here, please. The scale is nM.

Use the examples below as a reference point.
# smiles.record, result.units, IC50
records = [
    ("O=C(O)c1cc(-c2ccc(/C=C3\\SC(=S)N(CCc4ccc(OCc5ccsc5)cc4)C3=O)o2)ccc1Cl", "nM", 50),
    ("CCOc1ccc(CCN2C(=O)/C(=C/c3ccc(-c4ccc(Cl)c(C(=O)O)c4)o3)SC2=S)cc1", "nM", 30),
]

Requested read-out IC50, target or system SARS-CoV PsV, entry "O=C(O)c1cc(-c2ccc(/C=C3\SC(=S)N(CCc4ccc(OCC5CC5)cc4)C3=O)o2)ccc1Cl"
20

Next compound up: "C#CCOCCOc1ccc(CCN2C(=O)/C(=C/c3ccc(-c4ccc(Cl)c(C(=O)O)c4)o3)SC2=S)cc1"
50

Next compound up: "C#CCOc1ccc(CCN2C(=O)/C(=C/c3ccc(-c4ccc(Cl)c(C(=O)O)c4)o3)SC2=S)cc1"
110

Next compound up: "O=C(O)c1cc(-c2ccc(/C=C3\SC(=S)N(CCc4ccc(OCc5ccc(F)cc5)cc4)C3=O)o2)ccc1Cl"
290

###

# HIV-1 6-HB (Human immunodeficiency virus type 1): IC50 values follow
# Sequence (P04578 536-581, added parts left off): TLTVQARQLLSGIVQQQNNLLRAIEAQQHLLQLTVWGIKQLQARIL
# Sequence (P04578 536-581, added parts left off): as above

# smiles.record, observed
records = [
    ("O=C(O)c1cc(-c2ccc(C=C3SC(=S)N(CCc4ccccc4)C3=O)o2)ccc1Cl", "17.4 µM"),
]

Okay, now this compound:
For the compound "O=C(O)c1cc(-c2ccc(/C=C3\SC(=S)N(CCc4ccc(OCC5CC5)cc4)C3=O)o2)ccc1Cl" , what IC50 is on record?
50.1 µM

###

system: cell-free SARS-CoV-2 PsV; assay: Inactivation of cell-free SARS-CoV-2 PsV; type: cell-based
readout.label: EC50 (nM)
Numbers only here, please. The scale is nM.

For the compound O=C(O)c1cc(-c2ccc(C=C3SC(=S)N(CCc4ccccc4)C3=O)o2)ccc1Cl [FD001, furanyl methylidene rhodanine] , what EC50 is on record?
670

###

Measured pIC50, listed per entry for reference.
test system: MERS-CoV PsV; experiment: microbe, parasite or virus in culture; details: Middle East respiratory syndrome-related coronavirus, Huh-7
Here pIC50 is given on a logarithmic scale as minus log10 of the concentration in mol/L.

Use the examples below as a reference point.
# compound, observed
data = [
    ("CCOc1ccc(CCN2C(=O)/C(=C/c3ccc(-c4ccc(Cl)c(C(=O)O)c4)o3)SC2=S)cc1 [FD009]", 6.55),
    ("C#CCOc1ccc(CCN2C(=O)/C(=C/c3ccc(-c4ccc(Cl)c(C(=O)O)c4)o3)SC2=S)cc1 [FD007]", 6.70),
    ("O=C(O)c1cc(-c2ccc(/C=C3\\SC(=S)N(CCc4ccc(OCC5CC5)cc4)C3=O)o2)ccc1Cl [FD012]", 6.96),
    ("O=C(O)c1cc(-c2ccc(/C=C3\\SC(=S)N(CCc4ccc(OCc5ccsc5)cc4)C3=O)o2)ccc1Cl [FD013]", 7.30),
]

Requested read-out pIC50, target or system MERS-CoV PsV, entry C#CCOCCOc1ccc(CCN2C(=O)/C(=C/c3ccc(-c4ccc(Cl)c(C(=O)O)c4)o3)SC2=S)cc1 [FD008]
6.51

Next compound up: O=C(O)c1cc(-c2ccc(/C=C3\SC(=S)N(CCc4ccc(OCc5ccc(F)cc5)cc4)C3=O)o2)ccc1Cl [FD010]
6.92

###

tested on: MERS-CoV PsV
readout.label: SI CC50/IC50
Output: the number by itself.

# compound, readout.label, observed
rows = [
    ("O=C(O)c1cc(-c2ccc(C=C3SC(=S)N(CCc4ccccc4)C3=O)o2)ccc1Cl [FD001, furanyl methylidene rhodanine]", "SI CC50/IC50", 147.07),
    ("O=C(O)c1cc(-c2ccc(/C=C3\\SC(=S)N(CCc4ccc(OCc5ccsc5)cc4)C3=O)o2)ccc1Cl [FD013]", "SI CC50/IC50", 618.00),
    ("C#CCOCCOc1ccc(CCN2C(=O)/C(=C/c3ccc(-c4ccc(Cl)c(C(=O)O)c4)o3)SC2=S)cc1 [FD008]", "SI CC50/IC50", 125.48),
    ("O=C(O)c1cc(-c2ccc(/C=C3\\SC(=S)N(CCc4ccc(OCc5ccc(F)cc5)cc4)C3=O)o2)ccc1Cl [FD010]", "SI CC50/IC50", 372.25),
    ("O=C(O)c1cc(-c2ccc(/C=C3\\SC(=S)N(CCc4ccc(OCC5CC5)cc4)C3=O)o2)ccc1Cl [FD012]", "SI CC50/IC50", 169.27),
]

Okay, now this compound:
Requested read-out SI CC50/IC50, target or system MERS-CoV PsV, entry CCOc1ccc(CCN2C(=O)/C(=C/c3ccc(-c4ccc(Cl)c(C(=O)O)c4)o3)SC2=S)cc1 [FD009]
98.36

###

assay: Cytotoxicity (CCK-8) on Huh-7 cells; conditions: human
readout.label: CC50 at 48 h (µM)
Numbers only here, please. The scale is µM.

# smiles.record, CC50 at 48 h, µM
measured = [
    ("O=C(O)c1cc(-c2ccc(/C=C3\\SC(=S)N(CCc4ccc(OCC5CC5)cc4)C3=O)o2)ccc1Cl", 18.6),
    ("CCOc1ccc(CCN2C(=O)/C(=C/c3ccc(-c4ccc(Cl)c(C(=O)O)c4)o3)SC2=S)cc1", 27.5),
]

For the compound "O=C(O)c1cc(-c2ccc(/C=C3\SC(=S)N(CCc4ccc(OCc5ccc(F)cc5)cc4)C3=O)o2)ccc1Cl" , what CC50 at 48 h is on record?
44.7

Next compound up: "O=C(O)c1cc(-c2ccc(/C=C3\SC(=S)N(CCc4ccc(OCc5ccsc5)cc4)C3=O)o2)ccc1Cl"
30.9

Next compound up: "C#CCOCCOc1ccc(CCN2C(=O)/C(=C/c3ccc(-c4ccc(Cl)c(C(=O)O)c4)o3)SC2=S)cc1"
38.9

###

test system: hACE2-293T cells; test: Cytotoxicity (CCK-8) on hACE2-293T cells
readout.label: CC50 (µM)
Numbers only here, please. The scale is µM.

For the compound "O=C(O)c1cc(-c2ccc(C=C3SC(=S)N(CCc4ccccc4)C3=O)o2)ccc1Cl" , what CC50 is on record?
28.8

###

test system: pseudotyped SARS-CoV-2 Gamma (P.1); assay: microbe, parasite or virus in culture; assay type: cell-based; conditions: Severe acute respiratory syndrome coronavirus 2, Caco-2
readout.label: IC50 (nM)
Numbers only here, please. The scale is nM.

# compound, result.units, observed
measured = [
    ("O=C(O)c1cc(-c2ccc(/C=C3\\SC(=S)N(CCc4ccc(OCC5CC5)cc4)C3=O)o2)ccc1Cl [FD012]", "nM", 250),
    ("C#CCOCCOc1ccc(CCN2C(=O)/C(=C/c3ccc(-c4ccc(Cl)c(C(=O)O)c4)o3)SC2=S)cc1 [FD008]", "nM", 690),
    ("CCOc1ccc(CCN2C(=O)/C(=C/c3ccc(-c4ccc(Cl)c(C(=O)O)c4)o3)SC2=S)cc1 [FD009]", "nM", 470),
    ("O=C(O)c1cc(-c2ccc(/C=C3\\SC(=S)N(CCc4ccc(OCc5ccc(F)cc5)cc4)C3=O)o2)ccc1Cl [FD010]", "nM", 870),
    ("C#CCOc1ccc(CCN2C(=O)/C(=C/c3ccc(-c4ccc(Cl)c(C(=O)O)c4)o3)SC2=S)cc1 [FD007]", "nM", 530),
]

For the compound O=C(O)c1cc(-c2ccc(/C=C3\SC(=S)N(CCc4ccc(OCc5ccsc5)cc4)C3=O)o2)ccc1Cl [FD013] , what IC50 is on record?
410
